Data origin: the kinase profiling compilation of Christmann-Franck et al. (2016)

molecular target: CSNK1D (human); assay: radiometric filter-binding kinase assay; details: compound 10.0 µM
READOUT NAME: residual activity (%)

compound=Cc1ccc(-c2ccc3c(ccc4sc5c(c43)NC[C@@H](C)NC5=O)n2)cn1 readout_name="residual activity" units_symbol=% numeric_result=92
compound=O=c1c(O)c(-c2ccc(O)c(O)c2)oc2cc(O)c(O)c(O)c12 readout_name="residual activity" units_symbol=% numeric_result=29
compound=CCn1c(-c2nonc2N)nc2cncc(CNC3CCNCC3)c21 readout_name="residual activity" units_symbol=% numeric_result=61
compound=O=S(=O)(c1ccc(F)c2nonc12)N1CCN(c2ncc(C(F)(F)F)cc2Cl)CC1 readout_name="residual activity" units_symbol=% numeric_result=79
compound="Nc1cccc2c1CN(C1CCC(=O)NC1=O)C2=O (configuration not stated)" readout_name="residual activity" units_symbol=% numeric_result=97
compound=Cc1cc(SCc2sc(-c3ccc(C(F)(F)F)cc3)nc2C)ccc1OCC(=O)O readout_name="residual activity" units_symbol=% numeric_result=80
compound="O=C1Nc2nc(-c3c(O)cccc3OCC3CC3)cc(C3CCCNC3)c2CO1 (configuration not stated)" readout_name="residual activity" units_symbol=% numeric_result=43
compound=NC1(c2ccc(-c3nc4ccn5c(=O)[nH]nc5c4cc3-c3ccccc3)cc2)CCC1 readout_name="residual activity" units_symbol=% numeric_result=91
compound=c1ccc2c(-c3cnn4cc(-c5ccc(N6CCNCC6)cc5)cnc34)ccnc2c1 readout_name="residual activity" units_symbol=% numeric_result=22
compound=CCc1cncnc1N1CCN(Cc2nc3cc(C(F)(F)F)ccc3[nH]2)CC1 readout_name="residual activity" units_symbol=% numeric_result=71
compound=CCCC(CCC)C(=O)O readout_name="residual activity" units_symbol=% numeric_result=107
compound=Cc1ccc2c(c1)C(=O)[C@@]1(O)CCN(c3ccccc3)C1=N2 readout_name="residual activity" units_symbol=% numeric_result=99
compound=O=C(NOC[C@H](O)CO)c1ccc(F)c(F)c1Nc1ccc(I)cc1Cl readout_name="residual activity" units_symbol=% numeric_result=101
compound=O=C(O)c1cc(N=Nc2ccc(S(=O)(=O)Nc3ccccn3)cc2)ccc1O readout_name="residual activity" units_symbol=% numeric_result=95
compound=N#Cc1c(O)c2c(-c3ccc(-c4ccccc4O)cc3)csc2[nH]c1=O readout_name="residual activity" units_symbol=% numeric_result=88
compound=COc1cc2ncn(-c3cc(OCc4ccccc4S(C)(=O)=O)c(C#N)s3)c2cc1OC readout_name="residual activity" units_symbol=% numeric_result=91
compound=CC(C)(C#N)c1ccc(N2C(=O)OCc3cnc4ccc(-c5cnc6ccccc6c5)cc4c32)cc1 readout_name="residual activity" units_symbol=% numeric_result=95
compound=FC(F)(F)c1ccc(-c2ccc(Oc3cncc4sc(-c5nn[nH]n5)cc34)cc2)cc1 readout_name="residual activity" units_symbol=% numeric_result=41
compound="CC1=C(CO)C(=O)O[C@@H]([C@@H](C)[C@H]2CC[C@H]3[C@@H]4C[C@H]5O[C@]56[C@@H](O)C=CC(=O)[C@]6(C)C4CC[C@]23C)C1 (some centres not stated)" readout_name="residual activity" units_symbol=% numeric_result=105
compound=Cc1cccc(Nc2nn(C)c3ncnc(N)c23)c1 readout_name="residual activity" units_symbol=% numeric_result=87
compound=O=C(N[C@@H](COc1ccc2[nH]c(=O)[nH]c2c1)c1ccccc1)c1cccn(Cc2ccc(F)c(F)c2)c1=O readout_name="residual activity" units_symbol=% numeric_result=113
compound=CCCCCc1ccc(/C=C/[C@H](O)[C@@H](CO)NC)cc1 readout_name="residual activity" units_symbol=% numeric_result=81
compound=Cn1nc(Nc2ccc(F)cc2)c2c(N)ncnc21 readout_name="residual activity" units_symbol=% numeric_result=62
compound=COc1cc(C(=O)N2CCOCC2)c(F)cc1Nc1ncc(C(F)(F)F)c(NC2CC2)n1 readout_name="residual activity" units_symbol=% numeric_result=67
compound=C[C@H]1CCCC(=O)CCC/C=C/c2cc(O)cc(O)c2C(=O)O1 readout_name="residual activity" units_symbol=% numeric_result=83
compound=O=C(O)c1ccc(-c2c[nH]c3ncc(-c4ccccc4)cc23)cc1C1CCCC1 readout_name="residual activity" units_symbol=% numeric_result=3
compound=Cc1nc(-c2ccc(OCC(C)C)c(C#N)c2)sc1C(=O)O readout_name="residual activity" units_symbol=% numeric_result=93
compound=O=C1NC(=S)N[C@@H]1Cc1c[nH]c2ccccc12 readout_name="residual activity" units_symbol=% numeric_result=115
compound=NC(=O)Nc1ccc2c(c1)/C(=C/c1cc(-c3cccnc3)c[nH]1)C(=O)N2 readout_name="residual activity" units_symbol=% numeric_result=20
compound="CC(C)C[C@H](NC(=O)CNC(=O)c1cc(Cl)ccc1Cl)B1OC(=O)CC(CC(=O)O)(C(=O)O)O1 (some centres not stated)" readout_name="residual activity" units_symbol=% numeric_result=81
compound=O=C(Nc1ccccc1-c1cn2c(CN3CCNCC3)csc2n1)c1cnc2ccccc2n1 readout_name="residual activity" units_symbol=% numeric_result=91
compound=Oc1ccc(/C=C/c2cc(O)cc(O)c2)cc1 readout_name="residual activity" units_symbol=% numeric_result=94
compound="O=C(NOCC(O)CO)c1ccc(F)c(F)c1Nc1ccc(I)cc1Cl (configuration not stated)" readout_name="residual activity" units_symbol=% numeric_result=97
compound=NC(=O)c1cc(-c2ccnc(NC3CCCCC3)c2)nc(N2CCNCC2)c1 readout_name="residual activity" units_symbol=% numeric_result=18
compound=COC(=O)/C=C/C(=O)OC readout_name="residual activity" units_symbol=% numeric_result=88
compound=CCNc1nc(Nc2cc(F)c(C(=O)N3CCOCC3)cc2OC)ncc1C(F)(F)F readout_name="residual activity" units_symbol=% numeric_result=81
compound=C=CC(=O)N1CCC[C@@H](n2nc(-c3ccc(Oc4ccccc4)cc3)c3c(N)ncnc32)C1 readout_name="residual activity" units_symbol=% numeric_result=115
compound=NCC(=O)Nc1ccc(-n2nc(C(F)(F)F)cc2-c2ccc3c(ccc4ccccc43)c2)cc1 readout_name="residual activity" units_symbol=% numeric_result=93
compound=CN1C(=O)[C@@H](Cc2c[nH]c3ccccc23)NC1=S readout_name="residual activity" units_symbol=% numeric_result=101
compound=NC(=O)c1c(NC(=O)C2CC2)sc2c1CCCC2 readout_name="residual activity" units_symbol=% numeric_result=81
compound=NC(=O)c1ccc(-c2ccc(Oc3cncc4sc(-c5nn[nH]n5)cc34)cc2)cc1 readout_name="residual activity" units_symbol=% numeric_result=59
compound=NC(=O)c1cc2c(-c3cccc(-c4ccccc4)c3)cnc(N)c2s1 readout_name="residual activity" units_symbol=% numeric_result=18
